- Experimental system: Human fibrinogen receptor (αIIb β3) (Homo sapiens, UniProt P05106+P08514)
- Construct: Human fibrinogen receptor (αIIb β3) was purified from outdated platelets
- Sequence (P08514 32-887 limits assumed): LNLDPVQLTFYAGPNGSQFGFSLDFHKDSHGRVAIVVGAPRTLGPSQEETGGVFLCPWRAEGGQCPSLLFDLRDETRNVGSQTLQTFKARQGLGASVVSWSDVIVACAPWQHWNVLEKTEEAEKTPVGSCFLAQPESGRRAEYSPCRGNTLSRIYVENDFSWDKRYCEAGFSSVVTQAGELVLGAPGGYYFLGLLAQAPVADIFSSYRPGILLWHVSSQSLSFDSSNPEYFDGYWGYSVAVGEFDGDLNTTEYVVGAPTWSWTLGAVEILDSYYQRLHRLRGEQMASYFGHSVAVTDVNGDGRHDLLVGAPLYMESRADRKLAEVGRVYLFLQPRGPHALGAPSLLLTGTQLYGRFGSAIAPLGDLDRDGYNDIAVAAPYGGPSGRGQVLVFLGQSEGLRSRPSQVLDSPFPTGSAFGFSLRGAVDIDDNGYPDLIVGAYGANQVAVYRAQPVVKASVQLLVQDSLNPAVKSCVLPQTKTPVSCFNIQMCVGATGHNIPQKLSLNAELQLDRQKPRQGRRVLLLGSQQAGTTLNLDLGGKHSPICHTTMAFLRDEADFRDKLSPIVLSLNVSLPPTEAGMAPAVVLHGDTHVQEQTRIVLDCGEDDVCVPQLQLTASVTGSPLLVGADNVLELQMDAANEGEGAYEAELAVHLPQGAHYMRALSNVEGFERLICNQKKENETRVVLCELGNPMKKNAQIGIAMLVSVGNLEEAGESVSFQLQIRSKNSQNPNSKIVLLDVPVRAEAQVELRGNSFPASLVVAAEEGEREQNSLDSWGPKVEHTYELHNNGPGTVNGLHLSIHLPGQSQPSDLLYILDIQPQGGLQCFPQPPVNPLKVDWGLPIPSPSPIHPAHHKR
- Sequence (P08514 891-1039 limits assumed): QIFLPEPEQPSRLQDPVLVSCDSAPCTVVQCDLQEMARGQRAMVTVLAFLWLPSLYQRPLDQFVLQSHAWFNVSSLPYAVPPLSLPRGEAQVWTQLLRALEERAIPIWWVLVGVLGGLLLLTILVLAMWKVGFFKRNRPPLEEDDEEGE
- Sequence (P05106 27-788): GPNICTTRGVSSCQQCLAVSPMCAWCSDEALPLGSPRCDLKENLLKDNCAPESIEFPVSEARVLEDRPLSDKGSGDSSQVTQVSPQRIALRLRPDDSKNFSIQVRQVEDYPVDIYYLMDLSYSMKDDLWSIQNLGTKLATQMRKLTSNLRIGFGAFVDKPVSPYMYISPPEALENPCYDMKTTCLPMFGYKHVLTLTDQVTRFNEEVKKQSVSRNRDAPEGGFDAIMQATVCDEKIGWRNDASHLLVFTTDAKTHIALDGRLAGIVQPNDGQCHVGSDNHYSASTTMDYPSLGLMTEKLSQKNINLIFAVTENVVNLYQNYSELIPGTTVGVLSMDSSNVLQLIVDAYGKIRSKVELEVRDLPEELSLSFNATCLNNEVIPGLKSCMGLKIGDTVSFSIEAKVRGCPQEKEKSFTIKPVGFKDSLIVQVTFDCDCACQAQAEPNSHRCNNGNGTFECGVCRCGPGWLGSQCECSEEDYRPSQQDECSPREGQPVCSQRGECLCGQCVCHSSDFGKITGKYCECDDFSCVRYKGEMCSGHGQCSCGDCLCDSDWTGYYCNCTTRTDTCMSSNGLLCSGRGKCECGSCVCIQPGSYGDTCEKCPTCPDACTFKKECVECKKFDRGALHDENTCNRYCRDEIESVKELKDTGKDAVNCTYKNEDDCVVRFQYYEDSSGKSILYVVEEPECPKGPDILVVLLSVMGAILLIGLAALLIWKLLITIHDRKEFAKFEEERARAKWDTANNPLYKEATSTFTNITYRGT
- Assay info: Purified IIb/IIIa receptor assay (solid phase receptor assay)
- Measurement parameters: inhibition of binding of biotinylated human vitronectin (1 nM) to purified receptor; Table I
- Protocol: The activity of the compounds of the present invention was tested in the following assays. Human fibrinogen receptor (αIIb β3) was purified from outdated platelets. […]
pIC50: −log10 of the molar value. Structures can show the parent of a compound that is named as a salt.
Measured parameter: pIC50

(a) N=C(N)Nc1cccc(CCC(=O)c2cccc(/C=C/C(=O)O)c2)c1 [Example 92, trifluoroacetate salt]
(b) COc1cc(NC(=O)c2cccc(NC(=N)N)c2)ccc1/C=C/C(=O)O [Example 31, trifluoroacetate salt]
Exam item: // select label with min value of measured pIC50 from [ a , b ] Mark your answer with the label of the selected entry.
Marked response: a
(a: 5.40, b: 7.16)

(a) O=C(O)/C=C/c1ccc(NC(=O)c2cccc(NC3=NCCCS3)c2)cc1 [Example 56, trifluoroacetate salt]
(b) O=C(O)/C=C/c1cccc(CNC(=O)c2cccc(NC3=NCCCN3)c2)c1 [Example 62, monohydrochloride]
Exam item: Lab note: check whether a or b has the lower measured pIC50. Kindly state the label of the option you pick.
Marked response: b
(b: 4.63, a: 6.18)

(A) O=C(O)/C=C/c1ccc2c(c1)CCN2C(=O)c1cccc(NC2=NCCN2)c1 [Example 77, trifluoroacetate salt]
(B) O=C(O)C=Cc1cc(C(=O)C=Cc2cccc(C3=NCCCN3)c2)ccc1F [Example 85, trifluoroacetate salt]
Exam item: Pick one: A or B . Which has the bigger pIC50 number? Select an item and report its label.
Marked response: A
(A: 6.64, B: 4.68)

###

- Experimental system: Human fibrinogen receptor (αIIb β3) (Homo sapiens, UniProt P05106+P08514)
- Construct: Human fibrinogen receptor (αIIb β3) was purified from outdated platelets
- Assay info: Purified IIb/IIIa receptor assay (solid phase receptor assay)
- Measurement parameters: inhibition of binding of biotinylated human vitronectin (1 nM) to purified receptor; Table I
- Protocol: The activity of the compounds of the present invention was tested in the following assays. Human fibrinogen receptor (αIIb β3) was purified from outdated platelets. […]
pIC50: −log10 of the molar value. Structures can show the parent of a compound that is named as a salt.
Measured parameter: pIC50

(a) N=C(N)Nc1cccc(C(=O)Nc2ccc(/C=C/C(=O)O)cc2)c1 [Example 4, trifluoroacetate salt]
(b) O=C(O)/C=C/c1cccc(CNC(=O)c2cccc(Nc3ncccn3)c2)c1 [Example 73, trifluoroacetate salt]
Exam item: // compare measured pIC50, left a , right b , return larger Your choice should be expressed through its label.
Marked response: a
(a: 8.15, b: 4.18)

###

- Experimental system: Human fibrinogen receptor (αIIb β3) (Homo sapiens, UniProt P05106+P08514)
- Construct: Human fibrinogen receptor (αIIb β3) was purified from outdated platelets
- Assay info: Purified IIb/IIIa receptor assay (solid phase receptor assay)
- Measurement parameters: inhibition of binding of biotinylated human vitronectin (1 nM) to purified receptor; Table I
- Procedure: The activity of the compounds of the present invention was tested in the following assays. Human fibrinogen receptor (αIIb β3) was purified from outdated platelets. […]
Counter-ions that a name gives are not always drawn.
Measured parameter: IC50 (nM)

# count of solved cases: 4
{"Compound": "O=C(O)/C=C/c1ccc(NC(=O)c2cccc(NC3=NCCCN3)c2)c(Cl)c1 [Example 22, trifluoroacetate salt]", "IC50 (nM)": 234}
{"Compound": "COC(=O)c1cc(NC(=O)c2cccc(NC(=N)N)c2)ccc1/C=C/C(=O)O [Example 37, trifluoroacetate salt]", "IC50 (nM)": 80}
{"Compound": "CCOC(=O)/C=C/c1ccc(NC(=O)c2cccc(NC(=N)N)c2)cc1 [Example 3, monohydrate trifluoroacetate salt]", "IC50 (nM)": 32200}
{"Compound": "N=C(N)Nc1cccc(-c2ncc(-c3ccc(/C=C/C(=O)O)cc3)[nH]2)c1 [Example 104, trifluoroacetate salt]", "IC50 (nM)": 24.5}

(a) O=C(O)/C=C/c1cccc(CNC(=O)c2cc(NC3=NCCN3)cc(C(F)(F)F)c2)c1 [Example 71, monohydrochloride hydrate]
(b) COc1cc(NC(=O)c2cc(NC(=N)N)cc(C(F)(F)F)c2)ccc1/C=C/C(=O)O [Example 55, trifluoroacetate salt]
Exam item: Lab note: record which item had the higher IC50, a or b . Write the label of whichever entry you select.
Marked response: a

###

- Experimental system: Human fibrinogen receptor (αIIb β3) (Homo sapiens, UniProt P05106+P08514)
- Construct: Human fibrinogen receptor (αIIb β3) was purified from outdated platelets
- Assay info: Purified IIb/IIIa receptor assay (solid phase receptor assay)
- Measurement parameters: inhibition of binding of biotinylated human vitronectin (1 nM) to purified receptor; Table I
pIC50: −log10 of the molar value. Structures can show the parent of a compound that is named as a salt.
Measured parameter: pIC50

{"Compound": "CNC(=O)c1cc(NC(=O)c2cccc(NC3=NCCCN3)c2)ccc1/C=C/C(=O)O [Example 45, bis(trifluoroacetate) salt]", "pIC50": 6.12}
{"Compound": "CCOC(=O)Nc1cc(NC(=O)c2cccc(NC3=NCCCN3)c2)ccc1/C=C/C(=O)O [Example 46, trifluoroacetate salt]", "pIC50": 5.59}
{"Compound": "N=C(N)Nc1cc(C(=O)Nc2ccc(/C=C/C(=O)O)cc2)cc(C(F)(F)F)c1 [Example 53, trifluoroacetate salt]", "pIC50": 6.63}
{"Compound": "O=C(O)/C=C/c1cccc(OCC(=O)c2cccc(NC3=NCCN3)c2)c1 [Example 80, trifluoroacetate salt]", "pIC50": 5.46}

(a) N=C(N)Nc1cccc(C(=O)Nc2ccc(/C=C(\NC(=O)c3ccccc3)C(=O)O)cc2)c1 [Example 60, trifluoroacetate salt]
(b) N=C(N)Nc1cccc(-c2coc(-c3ccc(C=CC(=O)O)cc3)n2)c1
(c) O=C(O)/C=C/c1ccc2c(c1)CCN2C(=O)c1cccc(NC2=NCCCN2)c1 [Example 76, trifluoroacetate salt]
Exam item: Form: Sort by [pIC50] Order [ ascending ] Write the labels in rank order as requested.
Marked response: c, a, b

###

- Experimental system: Human fibrinogen receptor (αIIb β3) (Homo sapiens, UniProt P05106+P08514)
- Construct: Human fibrinogen receptor (αIIb β3) was purified from outdated platelets
- Assay info: Purified IIb/IIIa receptor assay (solid phase receptor assay)
- Measurement parameters: inhibition of binding of biotinylated human vitronectin (1 nM) to purified receptor; Table I
- Protocol: The activity of the compounds of the present invention was tested in the following assays. Human fibrinogen receptor (αIIb β3) was purified from outdated platelets. […]
Structures can show the parent of a compound that is named as a salt.
Measured parameter: IC50 (nM)

Examples with answers:
{"Molecule": "Cc1cc(/C=C/C(=O)O)cc(C)c1NC(=O)c1cccc(NC2=NCCCS2)c1 [Example 57, trifluoroacetate salt]", "Measured parameter": "IC50", "Unit spec": "nM", "Test result": 12800}
{"Molecule": "O=C(O)/C=C/c1ccc(NC(=O)c2cccc(NC3=NCCCN3)c2)cc1C(=O)O [Example 40A, trifluoroacetate salt]", "Measured parameter": "IC50", "Unit spec": "nM", "Test result": 97.2}
{"Molecule": "CCc1cc(/C=C/C(=O)O)ccc1NC(=O)c1cccc(NC(=N)N)c1 [Example 7, trifluoroacetate salt]", "Measured parameter": "IC50", "Unit spec": "nM", "Test result": 15.1}
{"Molecule": "N=C(N)Nc1cccc(C(O)CCc2cccc(/C=C/C(=O)O)c2)c1 (racemic) [Example 96, trifluoroacetate salt]", "Measured parameter": "IC50", "Unit spec": "nM", "Test result": 15600}
{"Molecule": "NC(=O)N=C(N)Nc1cccc(C(=O)Nc2ccc(/C=C/C(=O)O)cc2)c1 [Example 52, trifluoroacetate salt]", "Measured parameter": "IC50", "Unit spec": "nM", "Test result": 133}

(I) N=C(N)Nc1cc(C(=O)Nc2ccc(/C=C/C(=O)O)c(Cl)c2)cc(C(F)(F)F)c1 [Example 54, trifluoroacetate salt]
(II) CCc1cc(/C=C/C(=O)O)ccc1NC(=O)c1cccc(NC2=NCCCN2)c1 [Example 19, trifluoroacetate salt]
(III) Cc1cc(NC(=O)c2cccc(NC(=N)N)c2)ccc1/C=C/C(=O)O [Example 33, trifluoroacetate salt]
(IV) N=C(N)Nc1cccc(/C=C/C(=O)c2ccc(F)c(/C=C/C(=O)O)c2)c1 [Example 84, trifluoroacetate salt]
(V) O=C(O)/C=C/c1cccc(C(=O)/C=C/c2cccc(NC3=NCCCN3)c2)c1 [Example 90, trifluoroacetate salt]
Exam item: Rank descending by IC50. Lab note: final answer is the ordered label list.
Marked response: IV, V, I, II, III
